Values were extracted from the Kinase Knowledgebase extract (Sharma et al. 2016).

system tested: PIK3CD (Human)
run description: Assessment of PIK3CD Kinase Activity
measured property: IC50

Please review the following examples before continuing.
[
  {
    "mol": "C[C@H](Nc1nc(N)ncc1C#N)c1cc2cccc(Cl)c2c(=O)n1-c1ccc(F)cc1F",
    "IC50": "< 100 nM"
  },
  {
    "mol": "COc1ncc(-c2cccc3nc([C@H](C)Nc4nc(N)ncc4C#N)n(-c4ccccc4)c(=O)c23)cn1",
    "IC50": "< 100 nM"
  },
  {
    "mol": "COc1cc(-c2cccc3cc([C@H](C)Nc4nc(N)ncc4C#N)n(-c4ccccc4)c(=O)c23)cnc1C",
    "IC50": "< 100 nM"
  },
  {
    "mol": "COc1cc(-c2cccc3cc([C@H](C)Nc4nc(N)ncc4C(=O)N(C)C)n(-c4ccccc4)c(=O)c23)ccn1",
    "IC50": "< 100 nM"
  }
]

Recorded IC50 (compound Cc1ncc(-c2cnc(N)nc2N[C@@H](C)c2cc3cccc(Cl)c3c(=O)n2-c2ccccc2)s1 ): < 100 nM

Per the record, C[C@H](Nc1nc(N)ncc1C#N)c1nc2cccc(-c3cnn(C)c3)c2c(=O)n1-c1ccccc1 has IC50 of < 100 nM

Entry C[C@H](Nc1nc(N)ncc1-c1ccccn1)c1cc2cccc(Cl)c2c(=O)n1-c1ccccc1 — recorded IC50 = 100 to 1000 nM

IC50 reported for this compound COc1ncc(-c2cccc3cc([C@H](C)Nc4nc(N)ncc4C#N)n(-c4ccccc4)c(=O)c23)cn1 : < 100 nM

Reported IC50 for COc1cc(-c2cccc3cc([C@H](C)Nc4nc(N)ncc4C#N)n(-c4ccccc4)c(=O)c23)ccn1 was < 100 nM

Noted for COc1ccc(-n2c([C@H](C)Nc3nc(N)ncc3C#N)cc3cccc(Cl)c3c2=O)cc1 : its IC50 reads 100 to 1000 nM

get_value(item= Cc1cccc2cc([C@H](C)Nc3nc(N)ncc3C(F)(F)F)n(-c3cccc(F)c3)c(=O)c12 , readout=IC50) returns < 100 nM
